Test system: Plasmodium falciparum 3D7 (chloroquine-sensitive strain)
EXPERIMENTAL_DETAILS: In vitro anti-plasmodial image-based asexual assay, 3D7 strain
Assay type: cell-based
EXPERIMENTAL_PARAMETERS: Plasmodium falciparum, 3D7, 72 h, 3D7 strain, 72 h; estimated IC50 as only ~90% inhibition reached at the top dose of 80 µM; read-out: Pf 3D7 IC50 ± SD (estimated, footnote d)
Description: The semisynthesized/functionalized triazolopyrazine compounds and the scaffold triazolopyrazine precursors, compounds 1–18, were tested for their antimalarial activity against the 3D7 (chloroquine-sensitive strain) and Dd2 (chloroquine, pyrimethamine, and mefloquine resistant strain) P. falciparum. […]
pIC50: −log10 of the molar value.
Below, each entry is listed with its recorded pIC50.

{"COMPOUND_STRUCTURE_STRING": "FC1(F)CCC(c2ncc(Cl)n3c(-c4ccc(Cl)cc4)nnc23)CC1", "pIC50": 4.69}
{"COMPOUND_STRUCTURE_STRING": "Cc1ncc(Cl)n2c(-c3ccc(Cl)cc3)nnc12", "pIC50": 4.72}
{"COMPOUND_STRUCTURE_STRING": "N#Cc1ccc(-c2nnc3cncc(Cl)n23)cc1", "pIC50": 4.72}
{"COMPOUND_STRUCTURE_STRING": "Cc1ncc(OCCc2ccccc2)n2c(-c3ccc(OC(F)F)cc3)nnc12", "pIC50": 4.95}
{"COMPOUND_STRUCTURE_STRING": "FC(F)Oc1ccc(-c2nnc3cncc(Cl)n23)cc1", "pIC50": 4.77}
{"COMPOUND_STRUCTURE_STRING": "Cc1ncc(Cl)n2c(-c3ccc(C#N)cc3)nnc12", "pIC50": 4.56}

Every entry's value here was drawn from paper PMC8122397.
